The measurements presented in this section are drawn from ChEMBL document CHEMBL1201862.

- Test system: MOLT-4
- experiment-description: NCI tumour cell line growth inhibition, 48 h
Active and inactive are the calls of the source. Cut-off read from the data, not from the text of the source: active = GI50 up to about 1.1 µM and inactive = higher.
Outcomes: TRUE = active, FALSE = inactive

- chem-smiles: "O=C(O)c1ccc(P(=O)(O)c2ccc(C(=O)O)cc2Br)c(Br)c1"
  assigned-class: "FALSE"
- chem-smiles: "CC(C)N/C(=N\\C#N)NS(=O)(=O)c1cnccc1NC1CCCCCCC1"
  assigned-class: "FALSE"
- chem-smiles: "COC(=O)NN(C(=O)OC)c1c(-c2ccccc2)nc(SC)n1N"
  assigned-class: "FALSE"
- chem-smiles: "CCOC(=O)c1c2c(n(-c3ccc(C)cc3)c1C)-c1ccccc1C(=O)C2(C(=O)OCC)C(=O)OCC"
  assigned-class: "FALSE"
- chem-smiles: "NCCCNc1ccc2c3c(nn2CCNCCO)-c2c(O)ccc(O)c2C(=O)c13"
  assigned-class: "TRUE"

----------
- Tested on: OVCAR-4
- experiment-description: NCI tumour cell line growth inhibition, 48 h
Activity calls are given as the source filed them. Rule as the data show it: active = GI50 up to about 1.1 µM and inactive = higher.
The following compounds are shown together with reported GI50 values.

- compound: "COc1cc(N(CCC#N)CCC#N)ccc1C(/N=N/c1cccc(C)c1)=N\\NC(=O)c1ccc(C)cc1"
  GI50: "> 100 µM (inactive)"
- compound: "O=C1CN2CCN(CC2)CC(=O)Nc2ccc(cc2)S(=O)(=O)c2ccc(cc2)NC(=O)CN2CCN(CC2)CC(=O)Nc2ccc(cc2)S(=O)(=O)c2ccc(cc2)N1"
  GI50: "> 100 µM (inactive)"
- compound: "CC(=O)OC1(C#N)CC2OC1C1C2N1C(=O)c1ccccc1 (stereo unspecified)"
  GI50: "> 100 µM (inactive)"
- compound: "Cc1c2cccc-2ccc2c1[nH]c1ccc(Br)cc12"
  GI50: "1.96 µM (inactive)"
- compound: "O=C(CCC(=O)c1ccc(Cl)cc1)NO"
  GI50: "> 100 µM (inactive)"
- compound: "COc1cc2c(cc1OCCCC(=O)Nc1cc(C(=O)Nc3cc(C(=O)Nc4cc(C(=O)NCCCN(C)C)n(C)c4)n(C)c3)n(C)c1)N=C[C@@H]1CCCN1C2=O"
  GI50: "1.95 µM (inactive)"
- compound: "Cc1ccc(C)c(N2C(=O)C(=O)C(c3nc4ccccc4s3)C(=O)C2=O)c1"
  GI50: "> 100 µM (inactive)"
- compound: "COc1ccc([C@@H]2OC(=O)C3C2C(=O)O[C@H]3c2ccc(OC)c(OC)c2)cc1OC (stereo partly specified)"
  GI50: "> 100 µM (inactive)"
- compound: "CCCOC(=O)C1C(c2ccc(OC)cc2)NC(c2ccc(OC)cc2)C(C(=O)OCCC)S1(=O)=O (stereo unspecified)"
  GI50: "> 10 µM (inactive)"
- compound: "COc1ccc(N(CN2C(=O)CCC2OC)C(C)=O)cc1 (stereo unspecified)"
  GI50: "> 100 µM (inactive)"
- compound: "COc1ccc(S(=O)(=O)NNS(C)(=O)=O)cc1"
  GI50: "> 100 µM (inactive)"
- compound: "CCOC(=O)C1=C(C)N(C)C(=S)NC1c1cccc(O)c1 (stereo unspecified)"
  GI50: "36.3 µM (inactive)"
- compound: "CC(C)(C)c1cc(C2=NNC(c3ccccc3)C2)cc(C(C)(C)C)c1O (stereo unspecified)"
  GI50: "14.2 µM (inactive)"
- compound: "Oc1c(Br)cc(Br)cc1CN(Cc1cc(Br)cc(Br)c1O)C1CCCCC1"
  GI50: "46.9 µM (inactive)"
- compound: "CCN1C(=S)n2cccc2C1CC(=O)c1ccc(Cl)cc1 (stereo unspecified)"
  GI50: "93.3 µM (inactive)"
- compound: "COc1cc(Oc2nc3c(N)cc(C(F)(F)F)cc3nc2-c2ccccc2)cc(OC)c1OC"
  GI50: "19.2 µM (inactive)"
- compound: "Cc1ccc(S(=O)(=O)SCc2ccccc2)cc1"
  GI50: "15.5 µM (inactive)"
- compound: "CC(=O)c1sc2c(c1OC(=O)c1cccs1)c(=O)n(-c1ccccc1)c(=S)n2-c1ccccc1"
  GI50: "22 µM (inactive)"
- compound: "OC(C1CCCCCCCCCC1)C(O)C1CCCCCCCCCC1 (stereo unspecified)"
  GI50: "> 100 µM (inactive)"
- compound: "CN(C)C(=S)SCC(=O)Nc1ccccc1"
  GI50: "> 100 µM (inactive)"
- compound: "NC(=S)NN=Cc1ccccc1OCc1cccc(COc2ccccc2C=NNC(N)=S)n1"
  GI50: "> 100 µM (inactive)"
